sequences and their reported furin cleavage Z-score
targetEntity: furin, P09958;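 also: purified furin at 1:10 enzyme:substrate in 50 mM HEPES pH 7.5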
Sequence (P09958 whole entry): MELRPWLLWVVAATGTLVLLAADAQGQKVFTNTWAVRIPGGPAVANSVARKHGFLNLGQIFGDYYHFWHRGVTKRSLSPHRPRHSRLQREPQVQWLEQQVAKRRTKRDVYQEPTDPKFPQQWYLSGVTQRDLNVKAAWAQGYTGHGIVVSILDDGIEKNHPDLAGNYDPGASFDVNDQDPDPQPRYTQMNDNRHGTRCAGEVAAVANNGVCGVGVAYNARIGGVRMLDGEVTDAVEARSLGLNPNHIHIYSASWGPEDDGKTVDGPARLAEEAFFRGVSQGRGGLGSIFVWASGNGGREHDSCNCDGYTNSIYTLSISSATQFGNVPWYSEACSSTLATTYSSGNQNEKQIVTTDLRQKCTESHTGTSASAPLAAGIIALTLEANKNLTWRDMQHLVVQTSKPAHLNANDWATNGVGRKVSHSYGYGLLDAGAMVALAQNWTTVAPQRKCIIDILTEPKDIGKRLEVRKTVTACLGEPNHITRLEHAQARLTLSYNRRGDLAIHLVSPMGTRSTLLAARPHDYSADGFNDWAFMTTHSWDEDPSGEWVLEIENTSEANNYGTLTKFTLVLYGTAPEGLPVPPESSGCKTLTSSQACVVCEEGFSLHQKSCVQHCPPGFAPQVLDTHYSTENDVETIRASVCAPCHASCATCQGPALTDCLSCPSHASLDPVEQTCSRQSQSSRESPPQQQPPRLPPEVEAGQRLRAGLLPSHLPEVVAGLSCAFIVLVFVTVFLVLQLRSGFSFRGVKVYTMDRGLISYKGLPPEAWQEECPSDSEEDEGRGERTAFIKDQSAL
assayName: furin cleavage Z-score vs untreated control; higher = more cleavage, active = 3.5 or more, inactive = 1 or less, 8 variable residues between constant flanks
conditionInfo: 15 min
This is one part of the list. The hit rate among all sequences tested is not known here.
The response must contain the number and no unit.

Worked examples follow.
>  <querySequence>
CADSGRAYLPAGNASASA [FS-2629]

>  <furin cleavage Z-score>
-0.681

$$$$
>  <querySequence>
CARFWRKTRSAGNASASA [FS-1396]

>  <furin cleavage Z-score>
13.8

$$$$
>  <querySequence>
CARMWRKTRSAGNASASA [FS-955]

>  <furin cleavage Z-score>
13.7

$$$$
>  <querySequence>
CARTHRSKRSAGNASASA [FS-957]

>  <furin cleavage Z-score>
11.5

$$$$
>  <querySequence>
CADSGRKTRSAGNASASA [FS-760]

>  <furin cleavage Z-score>
12.7

$$$$

(Q) // returns reported furin cleavage Z-score for input CARTGKVKRSAGNASASA [FS-497]
(A) 9.35

(Q) What do you have for CARHMRMTRSAGNASASA [FS-857] ?
(A) 13.6
